Test system: UACC-62 melanoma
Assay: NCI-60 one-dose screen, 48 h
Details: 10 µM unless noted
Procedure: Growth inhibition of the UACC-62 human tumor cell line is measured as a screen for anti-cancer activity. Cells are grown in 96 well plates and exposed to the test compound for 48 hours. Compounds are tested at a single concentration, which is 10^-5 M for most compounds. The reported endpoint is percent growth (GI% or GIPRCNT), where numbers from 0 - 100% represent growth inhibition, and numbers from -100% - 0 represent cell death. For example, a value of 40 represents 60% growth inhibition. […]
This is part of a sample that, as a whole, favours compounds with a hit. Of some 83,000 tested, about 20% had one in any assay. The source made the active and inactive calls. The calls were made as follows: active = growth percent below 10; inactive = the rest.
Pick one and only one: TRUE (active), FALSE (inactive)

Use these answered entries as a reference point.
[
  {
    "molecule": "CCCCCC1CCCCN1C(=O)OCCCC (stereo not drawn)",
    "answer-label": "FALSE"
  },
  {
    "molecule": "Nc1ccc2c(c1)Cc1cc(NC(=O)C(F)(F)F)ccc1-2",
    "answer-label": "FALSE"
  },
  {
    "molecule": "O=C(C[n+]1ccn(CC(OCc2ccc(Cl)cc2Cl)c2ccc(Cl)cc2Cl)c1)c1ccc(F)cc1 (stereo not drawn)",
    "answer-label": "TRUE"
  },
  {
    "molecule": "O=[N+]([O-])c1cc([N+](=O)[O-])c(C(F)(F)F)cc1NN=C(c1ccc(O)cc1)c1ccc(O)cc1",
    "answer-label": "FALSE"
  },
  {
    "molecule": "COc1ccc(/C=C(/C2=NCCN2)n2ccc3ccccc32)cc1",
    "answer-label": "FALSE"
  },
  {
    "molecule": "CC(=O)Nc1ccc(C=Nc2ccc3ccccc3c2)cc1",
    "answer-label": "FALSE"
  },
  {
    "molecule": "O=C(O)c1ccccc1C(F)(F)F",
    "answer-label": "FALSE"
  },
  {
    "molecule": "Cn1c(=O)c(C#N)c(-c2ccco2)n2c(S(=O)(=O)Cc3ccccc3)nnc12",
    "answer-label": "FALSE"
  },
  {
    "molecule": "COc1ccc(-c2c(C)nn3c(NCCN4CCOCC4)cc(C)nc23)cc1OC",
    "answer-label": "FALSE"
  },
  {
    "molecule": "COc1ccc(-c2cc(-c3ccccc3)nc(SCCCCCC(=O)NO)n2)cc1",
    "answer-label": "FALSE"
  }
]

Ask | Hey, what did the test say about COc1c(C(C)=O)c(OCCCCOc2c(C(C)=O)c(OC)c3ccoc3c2OC)c(OC)c2occc12 ?
Reply | FALSE

Ask | Hey, what did the test say about C[C@@H]1C[C@H]2C(=O)O[C@@H](C)[C@H](NC(=O)[C@H](Cc3cc(F)cc(F)c3)NC(=O)Nc3ccc(Cl)cc3F)C(=O)N3C[C@H](O)C[C@H]3C(=O)N3CCN(C)C[C@H]3C(=O)N[C@@H](C)C(=O)N2C1 ?
Reply | FALSE

Ask | Hey, what did the test say about O=C(Nc1ccc(F)cc1)c1ccccc1 ?
Reply | FALSE

Ask | Hey, what did the test say about Cc1cc(-c2ccc(N=Nc3c(S(=O)(=O)O)cc4cc(S(=O)(=O)O)cc(N)c4c3O)c(C)c2)ccc1N=Nc1cc(S(=O)(=O)O)c2ccccc2c1O ?
Reply | FALSE

Ask | Hey, what did the test say about C=C(C)C1CCC2(C(=O)O)CCC3(C)C(CCC4C5(C)CCC(OC(=O)NCc6ccccc6)C(C)(C)C5CCC43C)C12 (stereo not drawn) ?
Reply | FALSE

Ask | Hey, what did the test say about C=C(C)[C@@H]1CC[C@]2(C(=O)OC)CC[C@]3(C)[C@H](CC[C@@H]4[C@@](C)(CCc5nn[nH]n5)[C@H](C(=C)C)CC[C@]43C)[C@@H]12 ?
Reply | TRUE

Ask | Hey, what did the test say about Cc1ccc(-n2nc3n(/c2=N\C(=O)NS(=O)(=O)c2ccc(C)cc2)CCN3C2=NCCN2)cc1 ?
Reply | FALSE

Ask | Hey, what did the test say about COc1ccc2nc3c(cc2c1)C(=O)CC(c1ccccc1)C3 (stereo not drawn) ?
Reply | FALSE
